pIC50: recorded values
# target or system: GST-JAK1 enzyme (Homo sapiens (Human))
# Sequence (P23458 whole entry): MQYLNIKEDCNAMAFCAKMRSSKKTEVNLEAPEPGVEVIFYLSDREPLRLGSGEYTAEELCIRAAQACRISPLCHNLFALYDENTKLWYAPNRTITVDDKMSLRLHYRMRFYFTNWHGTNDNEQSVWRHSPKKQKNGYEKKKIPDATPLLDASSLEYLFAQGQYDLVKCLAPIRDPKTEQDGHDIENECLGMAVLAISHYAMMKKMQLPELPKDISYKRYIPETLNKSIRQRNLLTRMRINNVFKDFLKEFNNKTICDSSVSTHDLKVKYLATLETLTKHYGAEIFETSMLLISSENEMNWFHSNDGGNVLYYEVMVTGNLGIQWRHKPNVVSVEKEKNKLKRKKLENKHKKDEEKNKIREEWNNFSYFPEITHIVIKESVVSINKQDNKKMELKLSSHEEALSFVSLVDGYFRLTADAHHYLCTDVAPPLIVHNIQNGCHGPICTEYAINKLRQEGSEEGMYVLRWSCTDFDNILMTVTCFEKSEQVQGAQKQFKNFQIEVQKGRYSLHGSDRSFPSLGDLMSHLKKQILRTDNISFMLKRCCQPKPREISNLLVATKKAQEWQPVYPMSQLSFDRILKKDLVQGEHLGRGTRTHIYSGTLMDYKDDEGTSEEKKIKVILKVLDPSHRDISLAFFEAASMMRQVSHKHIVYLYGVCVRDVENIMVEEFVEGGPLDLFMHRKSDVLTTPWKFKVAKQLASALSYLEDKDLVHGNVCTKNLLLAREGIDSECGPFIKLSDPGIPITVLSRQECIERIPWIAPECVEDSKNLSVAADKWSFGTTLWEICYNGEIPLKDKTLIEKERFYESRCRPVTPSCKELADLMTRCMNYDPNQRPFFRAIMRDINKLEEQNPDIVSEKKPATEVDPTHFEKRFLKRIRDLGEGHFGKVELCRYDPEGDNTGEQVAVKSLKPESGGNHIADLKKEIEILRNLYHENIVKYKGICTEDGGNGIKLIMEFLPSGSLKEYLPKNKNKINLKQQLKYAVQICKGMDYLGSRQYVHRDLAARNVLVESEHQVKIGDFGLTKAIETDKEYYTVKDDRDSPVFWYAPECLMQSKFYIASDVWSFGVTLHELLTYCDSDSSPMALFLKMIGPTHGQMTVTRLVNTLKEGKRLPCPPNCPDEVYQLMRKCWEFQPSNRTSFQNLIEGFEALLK
# assay info: JAK1 Kinase Assay Protocol
# Assay type: biochemical
# experimental parameters: JAK1 kinase inhibition; read-out: LLE_JAK1 (IC50)
pIC50: −log10 of the molar value.

molecule | pIC50
CS(=O)(=O)N1C[C@H](CF)[C@H](Nc2c(C(N)=O)cnn3cc(-c4ccc(C(F)(F)F)nc4)cc23)C1 (racemic) [Example 275] | 8.21
CC[C@H]1CN(C(=O)C2(C#N)CCC2)C[C@H]1Nc1c(C(N)=O)cnn2cc(-c3ccnc(Cl)c3)cc12 [Example 257] | 8.92
NC(=O)c1cnn2cc(-c3cncc(F)c3)cc2c1NC1CCOCC1 [Example 29] | 6.92
CC[C@H]1CN(c2ncc(C#N)s2)C[C@H]1Nc1c(C(N)=O)cnn2cc(-c3cnn(C)c3)cc12 [Example 182] | 9.10
C[C@H]1CN(c2ccc(C#N)cn2)C[C@H]1Nc1c(C(N)=O)cnn2cc(-c3cnn(CC(=O)N4CCC(F)(F)C4)c3)cc12 [Example 185] | 9.52
C[C@@H]1[C@H]2CN(S(C)(=O)=O)C[C@H]2C[C@H]1Nc1c(C(N)=O)cnn2cc(-c3cnc(N)nc3)cc12 [Example 59] | 9.70
CCCC(=O)O[C@H]1CCN(c2cc3c(N[C@@H]4CCN(c5ncc(C#N)cn5)CC4(C)C)c(C(N)=O)cnn3c2)C1=O [Example 122] | 8.62
CC[C@@H]1CN(S(C)(=O)=O)CC[C@H]1Nc1c(C(N)=O)cnn2cc(-c3cnn(CCC#N)c3)cc12 [Example 126] | 9.00
CC[C@H]1CN(c2ccc(C#N)cn2)C[C@H]1Nc1c(C(N)=O)cnn2cc(-c3ccc(=O)n(C)c3)cc12 [Example 173] | 9.10
COc1ccc(-c2cc3c(N[C@@H]4CCN(C(=O)C(N)=O)CC4(C)C)c(C(N)=O)cnn3c2)cn1 [Example 55] | 8.36
CC[C@@H]1CN(C(=O)C(C)(C)O)CC[C@H]1Nc1c(C(N)=O)cnn2cc(-c3ccnc(C)c3)cc12 [Example 131] | 8.44
COc1ncc(-c2cc3c(N[C@@H]4CN(C(=O)C5(C#N)CC5)C[C@@H]4CF)c(C(N)=O)cnn3c2)cn1 [Example 280] | 9.05
NC(=O)c1cnn2cc(-c3cccnc3)cc2c1NC1CCOCC1 [Example 31] | 6.92
CC[C@H]1CN(c2ccc(C#N)cn2)C[C@H]1Nc1c(C(N)=O)cnn2cc(-c3cnn(C)c3)cc12 [Example 175] | 8.72
CC[C@@H]1CN(C(=O)[C@@H](O)CC)CC[C@H]1Nc1c(C(N)=O)cnn2cc(-c3cnn(C)c3)cc12 [Example 127] | 8.12
CNC(=O)c1ccc(-c2cc3c(N[C@@H]4C[C@@H]5CN(C(=O)C(C)(C)O)C[C@@H]5[C@H]4C)c(C(N)=O)cnn3c2)cn1 [Example 63] | 9.40
COc1ccc(-c2cc3c(N[C@@H]4CN(S(C)(=O)=O)C[C@@H]4OC)c(C(N)=O)cnn3c2)cn1 [Example 315] | 8.10
C[C@@H]1[C@H]2CN(C(=O)C(C)(C)O)C[C@H]2C[C@H]1Nc1c(C(N)=O)cnn2cc(-c3cnc(N)nc3)cc12 [Example 62] | 8.44
CNC(=O)Cn1cc(-c2cc3c(N[C@@H]4CN(c5ccc(Cl)cn5)C[C@@H]4C)c(C(N)=O)cnn3c2)cn1 [Example 188] | 9.40
CC[C@@H]1CN(C(=O)[C@H](C)O)CC[C@H]1Nc1c(C(N)=O)cnn2cc(-c3ccnc(OC)c3)cc12 [Example 134] | 8.35
CC[C@H]1CN(C(=O)C2(C#N)CC2)C[C@H]1Nc1c(C(N)=O)cnn2cc(-c3cc(C)no3)cc12 [Example 292] | 9.15
N#Cc1ccccc1-c1cc2c(NC3CCOCC3)c(C(N)=O)cnn2c1 [Example 33] | 6.96
CNC(=O)c1ccc(-c2cc3c(N[C@@H]4CN(C(=O)OC)C[C@@H]4C)c(C(N)=O)cnn3c2)cn1 [Example 213] | 8.33
C[C@H]1CN(C(=O)CC#N)C[C@H]1Nc1c(C(N)=O)cnn2cc(-c3ccnc(F)c3)cc12 [Example 201] | 9.30
C[C@@H]1[C@H]2CN(S(C)(=O)=O)C[C@H]2C[C@H]1Nc1c(C(N)=O)cnn2cc(-c3nnn(C)n3)cc12 [Example 67] | 8.89
NC(=O)c1cnn2cc(-c3cnc4ccccc4c3)cc2c1NC1CCOCC1 [Example 35] | 7.40
NC(=O)c1cnn2cc(-c3cncnc3)cc2c1NC1CCOCC1 [Example 32] | 6.09
NC(=O)c1cnn2cc(-c3ccccc3F)cc2c1NC1CCOCC1 [Example 34] | 7.10
CC[C@@H]1CN(C(=O)[C@@H](C)O)CC[C@H]1Nc1c(C(N)=O)cnn2cc(-c3cnn(C)c3)cc12 [Example 152] | 8.05

Values were extracted from patent US8987268B2.
